Tested on: K-562 leukemia
protocol details: NCI-60 one-dose screen, 48 h
condition set: 10 µM unless noted
Protocol: Cells are grown in 96 well plates and exposed to the test compound for 48 hours. Compounds are tested at a single concentration, which is 10^-5 M for most compounds. The reported endpoint is percent growth (GI% or GIPRCNT), where numbers from 0 - 100% represent growth inhibition, and numbers from -100% - 0 represent cell death. For example, a value of 40 represents 60% growth inhibition. A value of 0 means no net growth occurred over the course of the experiment. […]
This is part of a sample that, as a whole, favours compounds with a hit. Of some 83,000 tested, about 20% had one in any assay. Active and inactive are the calls of the source. How the source made its calls: active means growth percent below 10; inactive means the rest.
API: response.call in YES for active, NO for inactive

In [3]: df
Out[3]:
                                   compound  assigned_label
0  Cc1cccc(Nc2nc3ccccc3nc2/C=C/c2ccc(F)cc2)c1              NO
1  COc1cc2c(c(OC)c1OC)C(=O)CC(c1cccc(NC(=O)c3cc(NC(=O)[C@@H](N)CO)ccc3C)c1)O2 (stereo not given in full)              NO
2  O=C(NN1C(=O)/C(=C/C=C/c2ccc([N+](=O)[O-])o2)SC1=S)c1ccccc1O             YES
3  N/C(=N\N=C\c1ccc([N+](=O)[O-])cc1)c1c(N)nc(=S)[nH]c1-c1ccc(Cl)cc1Cl              NO

We next turn to a different compound, shown below.
Ask: Per the assay record, what outcome was assigned to CCOC(=O)C1=C(N)N(c2ccccc2)C2=C(C(=O)CC(C)(C)C2)C1c1ccc(N2CCOCC2)cc1 (stereo not given) ?
Reply: NO

====

Tested on: SN12C renal
protocol details: NCI-60 one-dose screen, 48 h (100 = growth as untreated, 0 = no growth, -100 = all killed)
condition set: 10 µM unless noted
This is part of a sample that, as a whole, favours compounds with a hit. Of some 83,000 tested, about 20% had one in any assay.
Give growth for every item shown.
One number for each entry, in %.

                                   molecule  numeric_value
0  CCCCSc1nc(Nc2ccc(C(C)=O)cc2)c(C#N)c(-c2ccc(OC)cc2)n1           27.9
1  COc1c(F)ccc(C(=O)Nc2ccc3nc(NC(=O)C4CCCN(S(=O)(=O)c5cccc(C(F)(F)F)c5)C4)sc3c2)c1F (stereo not drawn)           78.8
2  O=C(NNc1ccccc1)n1c(=O)c2ccccc2c(=O)n1-c1ccccc1           85.9

For every item in the list below, what is its measured growth?
1. CN1CCc2c(sc3ncnc(N/N=C/c4ccc(Cl)cc4Cl)c23)C1
2. Cc1cc2nc3c4ccccc4n(CC4=NCCN4)c3nc2cc1C
3. CC12CC[C@@H]3[C@]4(C)COC(c5cn[nH]c5-c5cccc(Br)c5)O[C@@H]4CC[C@@]3(C)[C@@H]1CC(C1=CCOC1=O)O2 (stereo partly drawn)
4. C/C(=N\N=C1/C(=O)Nc2ccc(Cl)cc21)c1ccc2c(c1)Nc1ccccc1S2
5. O=C1NC(=O)/C(=C/c2ccccc2OCc2cc3ccccc3nc2Cl)S1
6. CCCCSc1nc(Nc2ccc(S(N)(=O)=O)cc2)c(C#N)c(-c2cc(OC)c(OC)c(OC)c2)n1
7. C=C1CC[C@@H]2[C@]3(C)COC(c4cn[nH]c4-c4cccc(Cl)c4)O[C@@H]3CC[C@@]2(C)[C@@H]1C/C=C1/C(=O)OCC1O (stereo partly drawn)

Reply:
1. -32.8
2. -6.68
3. 43.3
4. -16.2
5. 81.4
6. 23.1
7. -69.6

For every item in the list below, what is its measured growth?
1. COc1ccccc1C(=O)NN1C(=O)/C(=C/C2=Cc3ccccc3OC2)SC1=S
2. Cc1ccc([C@H]2C(C(=O)c3ccc(Cl)cc3)C3(N[C@@H]2c2ccccc2)C(=O)Nc2ccc(Br)cc23)cc1 (stereo partly drawn)
3. C#C[C@]1(O)CC[C@H]2[C@@H]3CC=C4c5sc(-c6ccc([N+](=O)[O-])cc6)nc5CC[C@]4(C)[C@H]3CC[C@@]21C
4. O=C1/C(=C/C2=Cc3ccccc3OC2)SC(=S)N1c1ccccc1F
5. Cc1ccc2c(N)c(C(=O)Nc3ccc(OC(F)(F)F)cc3)sc2n1
6. Cn1cc(-c2cc3nc(-c4c[nH]c5ccc(Cl)cc45)cc(N)n3n2)c2ccccc21
7. COc1ccc(C(=O)/C=C/c2cccnc2)cc1S(N)(=O)=O
8. Cn1cc(-c2cc(N)n3nc(-c4cn(C)c5ccccc45)cc3n2)c2cc(Br)ccc21

Reply:
104
4.02
57
103
70.2
-65.9
37.7
-43.9

====

System: MDA-MB-231 breast
protocol details: NCI-60 one-dose screen, 48 h
condition set: 10 µM unless noted
Compounds without any hit were thinned out: in the full panel of roughly 83,000, 20% have a hit. The source made the active and inactive calls. Rule for the calls: active = growth percent below 10; inactive = the rest.
API: response.call in active, inactive

Examples from the recorded data:
compound	assigned label
C#CCOc1ccc(/C=N/Nc2nc(-c3ccc(F)cc3)cs2)cc1OC	inactive
N/C(=N\c1nc2ccccc2s1)NC(=O)Nc1ccc(Cl)cc1Cl	active
CCCCCCCCc1ccc(C(=O)Nc2cccc(P(=O)(O)O)c2)cc1	inactive
C=C1CC[C@@H]2[C@]3(C)COC(c4cn[nH]c4-c4cccc(Cl)c4)O[C@@H]3CC[C@@]2(C)[C@@H]1C/C=C1/C(=O)OCC1O (stereo partly drawn)	active
CC1(C)CC[C@]2(C(=O)O)CC[C@]3(C)C(=CCC4[C@@]5(C)C[C@@H](O)[C@@H]6OC(c7cccc(Br)c7)OC[C@@]6(C)C5CC[C@]43C)C2C1 (stereo partly drawn)	inactive
C#CCOc1cc(N(CC)CC)ccc1C(C(=O)NC(C)(C)C)N(C(=O)C1CCc2cc(F)ccc2O1)c1cc(C)cc(C)c1 (stereo not drawn)	inactive
Cc1ccc(-c2nc(C#N)c(S(=O)(=O)N3CCN(S(=O)(=O)c4ccc(Cl)cc4)CC3)o2)cc1	inactive
CN(C)c1nc(NCCNS(=O)(=O)c2ccc(C3=Nc4c(N)nc(N)nc4NC(c4ccccc4)C3)cc2)nc(Nc2ccc(F)cc2)n1 (stereo not drawn)	inactive

Ask: Per the assay record, what outcome was assigned to `NS(=O)(=O)c1ccc(N=Nc2c(O)n(CC(=O)Nc3ccccc3Cl)c3ccccc23)cc1` ?
Reply: inactive

Ask: Try this compound next: `COc1ccc(C(=O)/C=C/c2cccc3ccccc23)cc1S(N)(=O)=O`
Reply: inactive

Ask: Try this compound next: `C/C(=N\N=C1/C(=O)Nc2ccccc21)c1ccc2c(c1)Nc1ccccc1S2`
Reply: inactive

Ask: Try this compound next: `COc1ccccc1C(=O)NN1C(=O)/C(=C/C2=Cc3ccccc3OC2)SC1=S`
Reply: inactive

Ask: Try this compound next: `C#CCOc1ccc(/C=N/Nc2nc(-c3ccc(Cl)cc3)cs2)cc1OC`
Reply: inactive

Ask: Try this compound next: `S=C(Nc1ccc(OCc2nc3ccccc3[nH]2)cc1)NC1CCCCC1`
Reply: inactive

Ask: Try this compound next: Cc1ccccc1[C@H]1C(C(=O)c2ccc(Cl)cc2)C2(N[C@@H]1c1ccccc1)C(=O)Nc1ccc(Br)cc12 (stereo partly drawn)
Reply: active

Ask: Try this compound next: `Nc1nnc(-c2c[nH]c3ccc(Br)cc23)c(-c2c[nH]c3ncc(Br)cc23)n1`
Reply: inactive

Ask: Try this compound next: `CC(=O)Nc1cccc(-c2nc3cc(-c4ccc(O)cc4)ccc3n2C)c1`
Reply: inactive

Ask: Try this compound next: C#CCOc1cc(N(CC)CC)ccc1C(C(=O)NC(C)(C)C)N(C(=O)C1CCc2cc(F)ccc2O1)c1ccccc1F (stereo not drawn)
Reply: inactive

====

Test system: CAKI-1 renal
protocol details: NCI-60 one-dose screen, 48 h (100 = growth as untreated, 0 = no growth, -100 = all killed)
condition set: 10 µM unless noted
This is part of a sample that, as a whole, favours compounds with a hit. Of some 83,000 tested, about 20% had one in any assay.
Parameter threshold = 90%. Response is true when growth meets or exceeds it, else false.

Examples from the recorded data:
In [3]: df
Out[3]:
                                   compound  assigned_label
0  CC1CN(c2oc(-c3ccc([N+](=O)[O-])cc3)nc2C#N)CC(C)O1 (stereo not given)            true
1  COc1c(F)ccc(C(=O)Nc2ccc3nc(NC(=O)C4CCCN(S(=O)(=O)c5ccc(Br)c(F)c5)C4)sc3c2)c1F (stereo not given)           false

We next turn to a different compound, shown below.
Ask: Exam item: decide whether the reported growth for `CN(C)CCCNC(=O)c1cc(NC(=O)c2cc(NC(=O)c3ccc(/C=C/c4ccccc4)cc3)cn2C)cn1C` is at least 90%.
Reply: false
